B1: FAM98B (parent)
chain: QLDKNSEVYQEVQAMFDTLGIPKS

# Variants of: B1
# test-description: protein stability index of a GFP-peptide fusion (GPS, HEK-293T) (PSI 1-6); higher = more stable;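 note: lentivirally expressed fusions sorted by FACS into six bins by GFP to DsRed ratio, PSI derived from sequencing read proportions per bin multiplied by bin number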
# condition-label: c terminus: a fixed tail appended
metric: protein stability index
Answer field: number only, no words.

INSERT INTO measurements (variant_label, metric, value) VALUES
  ('Q13C', 'protein stability index', 2.88),
  ('F16I', 'protein stability index', 2.79),
  ('M15F', 'protein stability index', 3.5);

Data request: Consider the variant shown here: `S24A` What is its recorded protein stability index?
Data returned: 2.88

Data request: Now consider `P22Y` and answer again.
Data returned: 2.54

Data request: Now consider `N5L` and answer again.
Data returned: 2.69

Data request: Also `S24W` ?
Data returned: 2.99

Data request: // repeat for `S6P` and report
Data returned: 4
